- target: Mu-type opioid receptor (Homo sapiens, UniProt P35372)
- Sequence (P35372 whole entry): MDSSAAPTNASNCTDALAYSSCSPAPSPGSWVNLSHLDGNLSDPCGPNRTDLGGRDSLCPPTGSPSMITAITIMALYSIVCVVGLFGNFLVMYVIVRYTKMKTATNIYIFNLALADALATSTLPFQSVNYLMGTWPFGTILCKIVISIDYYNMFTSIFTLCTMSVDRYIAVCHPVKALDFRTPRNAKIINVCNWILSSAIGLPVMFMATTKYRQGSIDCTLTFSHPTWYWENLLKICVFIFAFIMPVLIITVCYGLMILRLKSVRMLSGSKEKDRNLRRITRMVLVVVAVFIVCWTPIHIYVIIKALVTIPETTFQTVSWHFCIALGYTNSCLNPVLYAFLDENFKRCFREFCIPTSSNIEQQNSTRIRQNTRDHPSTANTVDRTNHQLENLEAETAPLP
- assay text: Agonist activity at human MOR expressed in human U2OS cells assessed as increase in beta arrestin2 recruitment incubated for 90 mins by pathhunter beta-arrestin assay relative to DAMGO
- Assay type: cell-based
- particulars: filed as partial agonist
Numbered stars: 1 amine (or outer) side, 2 acyl side, 3 side chain; on linkers, the order of the positions; unused ones are H or OH. Square brackets hold non-standard residues; d marks the D form. Peptide text beside a SMILES is read from it. X1 = O=C1[C@@H](N[*:1])Cc2ccccc2CN1CCC(=O)[*:2]; X2 = O=C([C@@H]1Cc2cc(O)ccc2CN1[*:1])[*:2]; Dmt = Cc1cc(O)cc(C)c1C[C@H](N)C(=O)O; mTyr = N[C@@H](Cc1cccc(O)c1)C(=O)O; β3hR = N=C(N)NCCC[C@H](N)CC(=O)O; Tle = CC(C)(C)[C@H](N)C(=O)O
Listing of recorded Emax by entry.
metric: Emax (%)

[
  {
    "molecule": "Cc1cc(O)cc(C)c1C[C@H](NC(=O)[C@@H]1CCCN1C(=O)[C@H](CCCNC(=N)N)NC(=O)C[C@H](CCCNC(=N)N)NC(=O)CCN1Cc2ccccc2C[C@H](NC(=O)[C@@H](CCCNC(=N)N)NC(=O)[C@@H](N)Cc2c(C)cc(O)cc2C)C1=O)C(=O)N[C@H](C(=O)N[C@@H](CC(C)C)C(=O)O)C(C)(C)C (H-[Dmt][dR][X1][β3hR]RP[Dmt][Tle]L-OH)",
    "target": "Mu-type opioid receptor (Homo sapiens, UniProt P35372)",
    "metric": "Emax",
    "units of measure": "%",
    "numeric readout": 68
  },
  {
    "molecule": "Cc1cc(O)cc(C)c1C[C@H](N)C(=O)N[C@H](CCCNC(=N)N)C(=O)N[C@H]1Cc2ccccc2CN(CCC(=O)N[C@@H](CCCNC(=N)N)C(=O)N[C@@H](CCCNC(=N)N)C(=O)N2CCC[C@H]2C(=O)N[C@@H](Cc2cccc(O)c2)C(=O)N[C@H](C(=O)N[C@@H](CC(C)C)C(=O)O)C(C)(C)C)C1=O (H-[Dmt][dR][X1]RRP[mTyr][Tle]L-OH)",
    "target": "Mu-type opioid receptor (Homo sapiens, UniProt P35372)",
    "metric": "Emax",
    "units of measure": "%",
    "numeric readout": 81
  },
  {
    "molecule": "Cc1cc(O)cc(C)c1C[C@H](N)C(=O)N[C@H](CCCNC(=N)N)C(=O)N[C@H]1Cc2ccccc2CN(CCC(N)=O)C1=O",
    "target": "Mu-type opioid receptor (Homo sapiens, UniProt P35372)",
    "metric": "Emax",
    "units of measure": "%",
    "numeric readout": 107
  },
  {
    "molecule": "Cc1cc(O)cc(C)c1C[C@H](N)C(=O)N[C@H](CCCNC(=N)N)C(=O)N[C@H]1Cc2ccccc2CN(CCC(=O)N[C@@H](CCCCN)C(=O)N[C@@H](CCCCN)C(=O)N2CCC[C@H]2C(=O)N[C@@H](Cc2ccc(O)cc2)C(=O)N[C@H](C(=O)N[C@@H](CC(C)C)C(=O)O)C(C)(C)C)C1=O (H-[Dmt][dR][X1]KKPY[Tle]L-OH)",
    "target": "Mu-type opioid receptor (Homo sapiens, UniProt P35372)",
    "metric": "Emax",
    "units of measure": "%",
    "numeric readout": 67
  },
  {
    "molecule": "Cc1cc(O)cc(C)c1C[C@H](N)C(=O)N[C@H](CCCNC(=N)N)C(=O)N[C@H]1Cc2ccccc2CN(CCC(=O)N[C@@H](CCCNC(=N)N)C(=O)N[C@@H](CCCNC(=N)N)C(=O)N2CCC[C@H]2C(=O)N[C@@H](Cc2ccc(O)cc2)C(=O)N[C@H](C(=O)N[C@@H](CC(C)C)C(=O)O)C(C)(C)C)C1=O (H-[Dmt][dR][X1]RRPY[Tle]L-OH)",
    "target": "Mu-type opioid receptor (Homo sapiens, UniProt P35372)",
    "metric": "Emax",
    "units of measure": "%",
    "numeric readout": 72
  },
  {
    "molecule": "Cc1cc(O)cc(C)c1C[C@H](NC(=O)[C@@H]1CCCN1C(=O)[C@H](CCCCN)NC(=O)[C@H](CCCCN)NC(=O)CCN1Cc2ccccc2C[C@H](NC(=O)[C@@H](CCCNC(=N)N)NC(=O)[C@@H](N)Cc2c(C)cc(O)cc2C)C1=O)C(=O)N[C@H](C(=O)N[C@@H](CC(C)C)C(=O)O)C(C)(C)C (H-[Dmt][dR][X1]KKP[Dmt][Tle]L-OH)",
    "target": "Mu-type opioid receptor (Homo sapiens, UniProt P35372)",
    "metric": "Emax",
    "units of measure": "%",
    "numeric readout": 62
  },
  {
    "molecule": "Cc1cc(O)cc(C)c1C[C@H](N)C(=O)N[C@H](CCCNC(=N)N)C(=O)N[C@H]1Cc2ccccc2CN(CCC(=O)N[C@@H](CCCCN)C(=O)N[C@@H](CCCCN)C(=O)N2CCC[C@H]2C(=O)N2Cc3ccc(O)cc3C[C@H]2C(=O)N[C@H](C(=O)N[C@@H](CC(C)C)C(=O)O)C(C)(C)C)C1=O (H-[Dmt][dR][X1]KKP[X2][Tle]L-OH)",
    "target": "Mu-type opioid receptor (Homo sapiens, UniProt P35372)",
    "metric": "Emax",
    "units of measure": "%",
    "numeric readout": 66
  },
  {
    "molecule": "Cc1cc(O)cc(C)c1C[C@H](NC(=O)[C@@H]1CCCN1C(=O)[C@H](CCCNC(=N)N)NC(=O)[C@H](CCCNC(=N)N)NC(=O)CCN1Cc2ccccc2C[C@H](NC(=O)[C@@H](CCCNC(=N)N)NC(=O)[C@@H](N)Cc2c(C)cc(O)cc2C)C1=O)C(=O)N[C@H](C(=O)N[C@@H](CC(C)C)C(=O)O)C(C)(C)C (H-[Dmt][dR][X1]RRP[Dmt][Tle]L-OH)",
    "target": "Mu-type opioid receptor (Homo sapiens, UniProt P35372)",
    "metric": "Emax",
    "units of measure": "%",
    "numeric readout": 79
  }
]
